Test system: colon adenocarcinoma line SW480
TEST_PROTOCOL: SW480 cell-based antiproliferative (MTT) assay
CONDITION_SET: Homo sapiens, SW480, 144 h, 1000 cells per well, 6 days post addition of test compound, read-out: Antiproliferative Activity SW480 (colon) Assay - IC50 Range
OBSERVED_PROPERTY: IC50

Previously resolved entries follow.
Cc1[nH]nc2c1N=C(c1ccccc1Cl)c1cc(N)ccc1N2 [Compound C4]: 0.01 to 1 µM
CCCc1[nH]nc2c1N=C(c1ccccc1Cl)c1cc([N+](=O)[O-])ccc1N2 [Compound B24]: 10 to 30 µM
O=[N+]([O-])c1ccc2c(c1)C(c1ccccc1Cl)=Nc1c(n[nH]c1Cc1ccccc1)N2 [Compound B8]: 10 to 30 µM
O=[N+]([O-])c1ccc2c(c1)C(c1ccccc1Cl)=Nc1c(n[nH]c1-c1ccc[nH]1)N2 [Compound B1]: 1.1 to 9.99 µM
Cc1[nH]nc2c1N=C(c1ccccc1Cl)c1cc(NS(C)(=O)=O)ccc1N2 [Compound C9]: 0.01 to 1 µM
Cc1[nH]nc2c1N=C(c1ccccc1F)c1cc([N+](=O)[O-])ccc1N2 [Compound B31]: 0.01 to 1 µM
Cc1[nH]nc2c1N=C(c1ccccc1F)c1cc(Cl)ccc1N2 [Compound B32]: 1.1 to 9.99 µM
O=[N+]([O-])c1ccc2c(c1)C(c1ccccc1Cl)=Nc1c(n[nH]c1-c1cccs1)N2 [Compound D6]: 10 to 30 µM
Cc1[nH]nc2c1N=C(c1ccccc1Cl)c1cc(Cl)ccc1N2 [Compound B20]: 1.1 to 9.99 µM
O=[N+]([O-])c1ccc2c(c1)C(c1ccccc1Cl)=Nc1c(n[nH]c1-c1ccccc1)N2 [Compound B23]: 10 to 30 µM

# map each compound to its IC50
1. CCc1[nH]nc2c1N=C(c1ccccc1Cl)c1cc([N+](=O)[O-])ccc1N2 [Compound B4]
2. Cc1[nH]nc2c1N=C(c1ccccc1C(F)(F)F)c1cc([N+](=O)[O-])ccc1N2 [Compound D2]
3. Cc1[nH]nc2c1N=C(c1ccccc1)c1cc(Cl)ccc1N2 [Compound B19]
4. Fc1ccc2c(c1)C(c1ccccc1F)=Nc1c[nH]nc1N2 [Compound A11]

Output line:
0.01 to 1 µM
0.01 to 1 µM
1.1 to 9.99 µM
10 to 30 µM

---

ASSAY_SYSTEM: Recombinant active human Cyclin E/CDK2 complexes (Homo sapiens)
TEST_PROTOCOL: CDK2 FlashPlate Assay (inhibition of Rb phosphorylation)
CONDITION_SET: Cyclin E/CDK2, Rb substrate, 33P-ATP, 25 minutes at room temperature; read-out: Inhibition of Cdk2 - IC50 Range
Kindly supply the reported IC50 values for the records listed here.

Previously resolved entries follow.
Cc1ccc(-c2[nH]nc3c2N=C(c2ccccc2Cl)c2cc([N+](=O)[O-])ccc2N3)s1: 1 to 9.99 µM
CN(C)C(=O)c1[nH]nc2c1N=C(c1ccccc1Cl)c1cc([N+](=O)[O-])ccc1N2: 1 to 9.99 µM
NNC(=O)c1[nH]nc2c1N=C(c1ccccc1Cl)c1cc([N+](=O)[O-])ccc1N2: 0.01 to 0.99 µM
CC(C)c1[nH]nc2c1N=C(c1ccccc1Cl)c1cc(N)ccc1N2: 0.01 to 0.99 µM
O=[N+]([O-])c1ccc2c(c1)C(c1ccccc1Cl)=Nc1c(n[nH]c1-c1cc[nH]n1)N2: 0.01 to 0.99 µM
O=[N+]([O-])c1ccc2c(c1)C(c1ccccc1Cl)=Nc1c(n[nH]c1C1CC1)N2: 0.01 to 0.99 µM

# map each compound to its IC50
1. COc1ccc2c(c1)C(c1ccccc1Cl)=Nc1c(n[nH]c1C)N2
2. O=[N+]([O-])c1ccc2c(c1)C(c1ccccc1Cl)=Nc1c(n[nH]c1C(F)(F)F)N2
3. O=[N+]([O-])c1ccc2c(c1)C(c1ccccc1C(F)(F)F)=Nc1c[nH]nc1N2
4. Cc1[nH]nc2c1N=C(c1ccccc1Cl)c1cc(NS(C)(=O)=O)ccc1N2

Output line:
["0.01 to 0.99 µM", "0.01 to 0.99 µM", "0.01 to 0.99 µM", "0.01 to 0.99 µM"]

# map each compound to its IC50
1. COC(=O)c1ccc2c(c1)C(c1ccccc1)=Nc1c[nH]nc1N2
2. O=C(c1ccc2c(c1)C(c1ccccc1F)=Nc1c[nH]nc1N2)N(CCO)CCO
3. Cc1[nH]nc2c1N=C(c1ccccc1Cl)c1cc([N+](=O)[O-])ccc1N2

Output line:
["1 to 9.99 µM", "1 to 9.99 µM", "0.01 to 0.99 µM"]

Input line: // lookup IC50 for Cc1[nH]nc2c1N=C(c1ccccc1F)c1cc(Cl)ccc1N2
Output line: 0.01 to 0.99 µM

---

Tested on: colon adenocarcinoma line SW480
TEST_PROTOCOL: SW480 cell-based antiproliferative (MTT) assay
CONDITION_SET: Homo sapiens, SW480, 144 h, 1000 cells per well, 6 days post addition of test compound, read-out: Antiproliferative Activity SW480 (colon) Assay - IC50 Range
OBSERVED_PROPERTY: IC50

Previously resolved entries follow.
Cc1[nH]nc2c1N=C(c1ccccc1F)c1cc(C#N)ccc1N2: 0.01 to 1 µM
NNC(=O)c1[nH]nc2c1N=C(c1ccccc1Cl)c1cc([N+](=O)[O-])ccc1N2: 10 to 30 µM

Now look at this entry.
Input line: // lookup IC50 for Fc1ccccc1C1=Nc2c[nH]nc2Nc2ccccc21
Output line: 10 to 30 µM
